molecular target: von Hippel-Lindau disease tumor suppressor/Cytochrome P450 1B1 (Homo sapiens, UniProt Q16678+P40337); experiment: Protac activity at E3 ubiquitin ligase/CYP1B1 (unknown origin) expressed in human DU145 cells assessed as induction of CYP1B1 degradation by immunoblotting analysis; format: cell-based; conditions: du-145
Sequence (Q16678 whole entry): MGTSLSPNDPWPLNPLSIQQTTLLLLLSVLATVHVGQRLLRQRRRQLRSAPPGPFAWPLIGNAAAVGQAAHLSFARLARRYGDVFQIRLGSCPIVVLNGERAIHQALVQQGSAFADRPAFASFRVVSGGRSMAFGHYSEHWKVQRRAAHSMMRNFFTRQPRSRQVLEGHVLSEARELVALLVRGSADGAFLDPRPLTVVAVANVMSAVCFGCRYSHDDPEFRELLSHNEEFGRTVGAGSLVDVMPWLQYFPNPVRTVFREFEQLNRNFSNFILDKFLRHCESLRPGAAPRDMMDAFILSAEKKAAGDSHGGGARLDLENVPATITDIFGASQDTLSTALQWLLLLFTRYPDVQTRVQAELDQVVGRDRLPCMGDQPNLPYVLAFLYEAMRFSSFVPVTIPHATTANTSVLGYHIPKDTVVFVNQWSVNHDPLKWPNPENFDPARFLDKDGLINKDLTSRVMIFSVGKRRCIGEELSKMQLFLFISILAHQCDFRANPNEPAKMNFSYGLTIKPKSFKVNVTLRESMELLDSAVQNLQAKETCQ
Sequence (P40337 whole entry): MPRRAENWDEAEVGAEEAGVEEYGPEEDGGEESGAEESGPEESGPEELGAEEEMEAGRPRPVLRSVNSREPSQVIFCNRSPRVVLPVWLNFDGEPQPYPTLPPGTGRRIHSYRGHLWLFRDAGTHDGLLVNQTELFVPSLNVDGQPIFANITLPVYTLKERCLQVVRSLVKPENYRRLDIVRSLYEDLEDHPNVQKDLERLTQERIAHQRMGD
assay-readout: Activity

Use the examples below as a reference point.
The compound listed as [N-]=[N+]=NCCCCCCCCOc1cccc2c1C(=O)N(C1CCC(=O)NC1=O)C2=O (stereo unspecified) shows Activity equal to Not Active

The compound listed as COc1ccc(OC)c2c1c(OC)cc1c(=O)cc(-c3ccc(-c4cn(CCCCCCCCOc5cccc6c5C(=O)N(C5CCC(=O)NC5=O)C6=O)nn4)cc3)oc12 (stereo unspecified) shows Activity equal to Not Active

The compound listed as [N-]=[N+]=NCCCCCOc1cccc2c1C(=O)N(C1CCC(=O)NC1=O)C2=O (stereo unspecified) shows Activity equal to Not Active

The compound listed as C#Cc1ccc(-c2cc(=O)c3cc(OC)c4c(OC)ccc(OC)c4c3o2)cc1 shows Activity equal to Not Active

The compound listed as COc1ccc(OC)c2c1c(OC)cc1c(=O)cc(-c3ccc(-c4cn(CCOc5cccc6c5C(=O)N(C5CCC(=O)NC5=O)C6=O)nn4)cc3)oc12 (stereo unspecified) shows Activity equal to Active

Others:
The compound listed as COc1ccc(OC)c2c1c(OC)cc1c(=O)cc(-c3ccc(-c4cn(CCCCCOc5cccc6c5C(=O)N(C5CCC(=O)NC5=O)C6=O)nn4)cc3)oc12 (stereo unspecified) shows Activity equal to Active

###

Target: Cytochrome P450 1A2 (Homo sapiens)
Sequence (P05177 whole entry): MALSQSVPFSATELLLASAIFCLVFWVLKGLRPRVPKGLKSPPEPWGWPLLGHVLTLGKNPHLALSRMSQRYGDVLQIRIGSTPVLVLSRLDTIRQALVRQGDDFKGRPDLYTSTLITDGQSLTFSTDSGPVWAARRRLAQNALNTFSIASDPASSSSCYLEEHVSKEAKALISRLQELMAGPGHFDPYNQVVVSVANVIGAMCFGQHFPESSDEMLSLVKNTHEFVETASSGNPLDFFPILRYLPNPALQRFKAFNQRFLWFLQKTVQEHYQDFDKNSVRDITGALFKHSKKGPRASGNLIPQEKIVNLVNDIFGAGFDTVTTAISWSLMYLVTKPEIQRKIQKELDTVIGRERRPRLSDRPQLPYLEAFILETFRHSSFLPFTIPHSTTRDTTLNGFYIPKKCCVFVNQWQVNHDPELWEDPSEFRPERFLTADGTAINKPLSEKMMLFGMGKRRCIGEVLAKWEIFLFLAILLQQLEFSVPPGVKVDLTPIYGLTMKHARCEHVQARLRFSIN
Test: Inhibition of recombinant human CYP1A2 expressed in baculovirus infected insect cells using 7-ethoxyresorufin as substrate preincubated for 5 mins followed by NADPH addition and measured after 35 mins by EROD assay
pIC50: −log10 of the molar value.
assay-readout: pIC50

a: C#Cc1ccc(-c2cc(=O)c3cc(OC)c4c(OC)ccc(OC)c4c3o2)cc1
b: COc1ccc(OC)c2c1c(OC)cc1c(=O)cc(-c3ccc(-c4cn(CCCCCOc5cccc6c5C(=O)N(C5CCC(=O)NC5=O)C6=O)nn4)cc3)oc12 (centres undefined)
Prompt: Between a and b , whose measured pIC50 reads higher? Write down the label attached to your selection.
Completion: a
(a: 6.05, b: 5.07)

Values compiled from ChEMBL document CHEMBL4680161.
